// provenance: paper PMC3226492

Experiment: Transplacental transfer efficiency (TTE): cord serum at delivery divided by maternal serum concentration, present study
Format: in vivo, human
Details: cord serum at delivery / maternal serum at 15 weeks of gestation
measure_name: TTE calculated from cord:maternal serum concentrations, arithmetic mean
Please state the value as a number alone, without comment.

Request: GET /values?readout=TTE calculated from cord:maternal serum concentrations, arithmetic mean&item= O=C(O)C(F)(F)C(F)(F)C(F)(F)C(F)(F)C(F)(C(F)(F)F)C(F)(F)F [Iso-PFOA]
Result: 0.84

Request: Try O=C(O)C(F)(F)C(F)(F)C(F)(F)C(F)(F)C(F)(F)C(F)(F)C(F)(F)C(F)(F)F [Total PFNA, perfluorononanoate] next.
Result: 0.41

Request: Try O=C(O)C(F)(F)C(F)(F)C(F)(F)C(F)(C(F)(F)F)C(F)(F)C(F)(F)F (stereo not drawn) [5m-PFOA] next.
Result: 0.86

---

I'd appreciate it if you could supply mean concentration in maternal serum values for the items below.
Assay: Total PFC concentrations in maternal and cord sera by HPLC-MS/MS
Assay type: in vivo, human
Settings: maternal serum, 15 weeks of gestation
Protocol: Blood collection. Samples (n = 20) analyzed in this study are a subset of the Chemicals, Health and Pregnancy (CHirP) cohort recruited in 2007–2008 in Vancouver (BC, Canada) ([Webster et al. 2011]). All participants provided informed consent. […] Serum preparation. […] Method blanks containing calf serum, a calf serum sample spiked at 0.5 ng/mL of each PFC, and a human serum sample spiked at 10 ng/mL were analyzed with the study samples. […]
A number alone suffices; assume ng/mL.

Request: GET /values?readout=mean concentration in maternal serum&item= O=S(=O)(O)C(F)(F)C(F)(F)C(F)(F)C(F)(F)C(F)(F)C(F)(F)C(F)(F)C(F)(F)F [Total PFOS, perfluorooctane sulfonate]
Result: 5.5

Request: Try O=C(O)C(F)(F)C(F)(F)C(F)(F)C(F)(F)C(F)(F)C(F)(F)C(F)(F)F [Total PFOA, perfluorooctanoate] next.
Result: 1.8

Request: Try O=C(O)C(F)(F)C(F)(F)C(F)(F)C(F)(F)C(F)(F)C(F)(F)C(F)(F)C(F)(F)F [Total PFNA, perfluorononanoate] next.
Result: 0.9

Request: Try O=C(O)C(F)(F)C(F)(F)C(F)(F)C(F)(F)C(F)(F)C(F)(F)C(F)(F)C(F)(F)C(F)(F)F [Total PFDA, perfluorodecanoate] next.
Result: 0.4

---

I'd appreciate it if you could supply TTE calculated from cord:maternal serum concentrations, arithmetic mean values for the items below.
Experiment: Transplacental transfer efficiency (TTE): cord serum at delivery divided by maternal serum concentration, present study
Assay type: in vivo, human
Conditions: cord serum at delivery / maternal serum at 15 weeks of gestation
Please state the value as a number alone, without comment.

Request: GET /values?readout=TTE calculated from cord:maternal serum concentrations, arithmetic mean&item= O=S(=O)(O)C(F)(C(F)(F)F)C(F)(F)C(F)(F)C(F)(F)C(F)(F)C(F)(F)C(F)(F)F (centres unmarked) [1m-PFOS]
Result: 0.87

Request: Try O=S(=O)(O)C(F)(F)C(F)(F)C(F)(F)C(F)(F)C(F)(C(F)(F)F)C(F)(F)C(F)(F)F (centres unmarked) [5m-PFOS] next.
Result: 0.53

Request: Try O=C(O)C(F)(F)C(F)(F)C(F)(F)C(F)(F)C(F)(F)C(F)(F)C(F)(F)F [Total PFOA, perfluorooctanoate] next.
Result: 0.61

Request: Try O=C(O)C(F)(F)C(F)(F)C(F)(F)C(F)(F)C(F)(F)C(F)(F)C(F)(F)C(F)(F)C(F)(F)F [Total PFDA, perfluorodecanoate] next.
Result: 0.34

Request: Try O=C(O)C(F)(F)C(F)(F)C(F)(F)C(C(F)(F)F)(C(F)(F)F)C(F)(F)F [tb-PFOA] next.
Result: 0.25

Request: Try O=S(=O)(O)C(F)(F)C(F)(F)C(F)(C(F)(F)F)C(F)(F)C(F)(F)C(F)(F)C(F)(F)F (centres unmarked) [3m-PFOS] next.
Result: 0.67

Request: Try O=S(=O)(O)C(F)(F)C(F)(F)C(F)(F)C(F)(F)C(F)(F)C(F)(F)F [Total PFHxS, perfluorohexane sulfonate] next.
Result: 0.41

Request: Try O=S(=O)(O)C(F)(F)C(F)(F)C(F)(F)C(F)(C(F)(F)F)C(F)(F)C(F)(F)C(F)(F)F (centres unmarked) [4m-PFOS] next.
Result: 0.55

Request: Try O=C(O)C(F)(F)C(F)(F)C(F)(F)C(F)(F)C(F)(F)C(F)(F)C(F)(F)F [n-PFOA] next.
Result: 0.62

Request: Try O=S(=O)(O)C(F)(F)C(F)(F)C(F)(F)C(F)(F)C(F)(F)C(F)(F)C(F)(F)C(F)(F)F [n-PFOS, linear perfluorooctane sulfonate] next.
Result: 0.33

Request: Try O=S(=O)(O)C(F)(F)C(F)(F)C(F)(F)C(F)(F)C(F)(F)C(F)(F)C(F)(F)C(F)(F)F [Total PFOS, perfluorooctane sulfonate] next.
Result: 0.33

Request: Try O=S(=O)(O)C(F)(F)C(F)(F)C(F)(F)C(F)(F)C(F)(F)C(F)(C(F)(F)F)C(F)(F)F [Iso- PFOS] next.
Result: 0.36

Request: Try O=C(O)C(F)(F)C(F)(F)C(F)(C(F)(F)F)C(F)(F)C(F)(F)C(F)(F)F (centres unmarked) [4m-PFOA] next.
Result: 0.64

Request: Try O=C(O)C(F)(F)C(F)(C(F)(F)F)C(F)(F)C(F)(F)C(F)(F)C(F)(F)F (centres unmarked) [3m-PFOA] next.
Result: 0.76
